Entry source: ChEMBL document CHEMBL1153685

- Species on record: Homo sapiens
- assayInfo: The compound was tested in vitro for its anti-platelet activity against human platelets in presence of ADP
- Type: functional
observable: log10(IC50) (log10 of the value in nM)
Log10 applied to IC50; unit prior to transform: nM.

Solved entries:
• CC(C)C(C)NC(=O)[C@H](CC(=O)O)NC(=O)CCCOc1ccc(C(=N)N)cc1 (stereo partly drawn) = 3.15
• CC(C)Oc1ccc(CCNC(=O)[C@H](CC(=O)O)NC(=O)CCCOc2ccc(C(=N)N)cc2)cc1 = 2.57
• CC(C)CNC(=O)[C@H](CC(=O)O)NC(=O)CCCOc1ccc(C(=N)N)cc1 = 3.08
• CC(C)[C@H](NC(=O)[C@H](CC(=O)O)NC(=O)CCCOc1ccc(C(=N)N)cc1)C(=O)N1CCN(C)CC1 = 2.26
• CC(C)[C@H](NC(=O)[C@H](CC(=O)O)NC(=O)CCCOc1ccc(C(=N)N)cc1)C(N)=O = 2.83
• CC(C)[C@H](NC(=O)[C@H](CC(=O)O)NC(=O)CCCOc1ccc(C(=N)N)cc1)C(=O)NC1CCCCC1 = 2.32

Please state log10(IC50) for every compound in the list that follows.
1. CC(C)[C@H](NC(=O)[C@H](CC(=O)O)NC(=O)CCCOc1ccc(C(=N)N)cc1)C(=O)N1CCOCC1
2. CCOc1ccc(CCNC(=O)[C@H](CC(=O)O)NC(=O)CCCOc2ccc(C(=N)N)cc2)cc1

Result:
1.90
2.53
